Reference source for all entries: paper PMC6219668

System: panel of nearly 500 cancer cell lines
Experiment: Cancer Cell Line Encyclopedia profiling, 3-day CellTiter-Glo
Assay type: cell-based
Details: Homo sapiens, Panc 02.03
propertyName: EC50 (nM)
Field: numeric (nM). Do not append units.

Ask: What does the record list as EC50 for CC(=O)c1c(C)c2cnc(Nc3ccc(N4CCNCC4)cn3)nc2n(C2CCCC2)c1=O [Palbociclib, reference compound] ?
Result: 1140

###

Test system: panel of nearly 500 cancer cell lines
Test: Cancer Cell Line Encyclopedia profiling, 3-day CellTiter-Glo
Assay type: cell-based
Conditions: Homo sapiens, KYSE-150
propertyName: EC50 (nM)
Your answer should be a plain number; it is taken to be in nM.

Ask: Could you tell me which EC50 is on file for CN(C)C(=O)c1cc2cnc(Nc3ccc(N4CCNCC4)cn3)nc2n1C1CCCC1 [Ribociclib] ?
Result: 2920

###

System: panel of nearly 500 cancer cell lines
Assay: Cancer Cell Line Encyclopedia profiling, 3-day CellTiter-Glo
Type: cell-based
Conditions: fadu (upper_aerodigestive_tract); read-out: IC50
pIC50: −log10 of the molar value.
propertyName: pIC50

Ask: Give pIC50 (panel of nearly 500 cancer cell lines) of the following molecule: CC(=O)c1c(C)c2cnc(Nc3ccc(N4CCNCC4)cn3)nc2n(C2CCCC2)c1=O
Result: < 5.10

###

System: panel of nearly 500 cancer cell lines
Assay: Cancer Cell Line Encyclopedia profiling, 3-day CellTiter-Glo
Format: cell-based
Conditions: hpac (pancreas); read-out: IC50
propertyName: IC50

Ask: Looking for the measured IC50 of CC(=O)c1c(C)c2cnc(Nc3ccc(N4CCNCC4)cn3)nc2n(C2CCCC2)c1=O , can you help?
Result: > 8 µM

###

// reported EC50 for each item listed
Tested on: panel of nearly 500 cancer cell lines
Experiment: Cancer Cell Line Encyclopedia profiling, 3-day CellTiter-Glo
Assay type: cell-based
Settings: Homo sapiens, KARPAS-422

CN(C)C(=O)c1cc2cnc(Nc3ccc(N4CCNCC4)cn3)nc2n1C1CCCC1    > 8 µM

Next molecule, EC50 to be filled in.
Ask: // query EC50 value for entry CC(=O)c1c(C)c2cnc(Nc3ccc(N4CCNCC4)cn3)nc2n(C2CCCC2)c1=O [Palbociclib, reference compound]
Result: > 8 µM

###

Tested on: panel of nearly 500 cancer cell lines
Assay: Cancer Cell Line Encyclopedia profiling, 3-day CellTiter-Glo
Type: cell-based
Conditions: cell line u118mg, central_nervous_system; read-out: IC50
propertyName: IC50

Ask: // returns reported IC50 for input CC(=O)c1c(C)c2cnc(Nc3ccc(N4CCNCC4)cn3)nc2n(C2CCCC2)c1=O
Result: > 8 µM

###

System: panel of nearly 500 cancer cell lines
Assay: Cancer Cell Line Encyclopedia profiling, 3-day CellTiter-Glo
Format: cell-based
Settings: bt549 (breast); read-out: IC50
pIC50: −log10 of the molar value.
propertyName: pIC50

Ask: Form field: pIC50 recorded for CC(=O)c1c(C)c2cnc(Nc3ccc(N4CCNCC4)cn3)nc2n(C2CCCC2)c1=O [Palbociblib] with panel of nearly 500 cancer cell lines (enter value)
Result: < 5.10

###

Tested on: panel of nearly 500 cancer cell lines
Experiment: Cancer Cell Line Encyclopedia profiling, 3-day CellTiter-Glo
Format: cell-based
Details: ovcar8 (ovary); read-out: IC50
propertyName: IC50

Ask: Request the reported IC50 associated with CC(=O)c1c(C)c2cnc(Nc3ccc(N4CCNCC4)cn3)nc2n(C2CCCC2)c1=O
Result: > 8 µM
